System: Rattus norvegicus
Assay: Dose normalized AUC in rat at 5 mg/kg, iv
Type: ADME, organism-based
Parameters: dose 5 mg/kg, route intravenous
Conditions: in vivo

[
  {
    "Compound": "CCC(CC)Nc1cc(C(=O)NC2CC3CCC(C2)N3c2ccc(C(C)=O)cn2)c(C)cc1C(N)=O (centres undefined)",
    "Uom": "µM·kg·h/mg",
    "AUC/dose": 0.6
  },
  {
    "Compound": "CCC(CC)Nc1cc(C(=O)NC2CC3CCC(C2)N3c2ccc(C(=O)C3CC3)cn2)ccc1C(N)=O (centres undefined)",
    "Uom": "µM·kg·h/mg",
    "AUC/dose": 0.78
  },
  {
    "Compound": "CCC(CC)Nc1cc(C(=O)NC2CC3CCC(C2)N3c2ccc(C(C)=O)cn2)ccc1C(N)=O (centres undefined)",
    "Uom": "µM·kg·h/mg",
    "AUC/dose": 1.22
  },
  {
    "Compound": "COc1cccc(C(=O)NC2CC3CCC(C2)N3c2ccc(C(N)=O)cn2)c1C (centres undefined)",
    "Uom": "µM·kg·h/mg",
    "AUC/dose": 6.3
  }
]
